# Lookup of reported LogP-neutral keyed by entry
- Assay Info: log P by HPLC on reversed-phase columns (OECD Guideline 117), neutral range
- Format: physicochemical
- Conditions Used: pH 7.8
Give a plain numeric answer without units written out.

Some entries whose results are on file:
• CN(C(=O)c1cnc(Oc2ccc(Oc3ccc(Cl)nc3)nc2)n1C)c1cccnc1 [Example II-69] = 1.94
• Cc1cc(Cl)ncc1Oc1ncc(C(=O)N(C)c2cccnc2)n1C [Example II-59] = 1.68
• COc1cccc(Oc2ncc(C(=O)N(C)c3cccnc3)n2C)c1 [Example II-76] = 1.75
• CCN(C(=O)c1cnc(Oc2ccc(Oc3ccc(Cl)nc3)nc2)n1C)c1cccnc1 [Example II-51] = 2.26
• CN(C(=O)c1cnc(Oc2cncc(F)c2)n1C)c1cccnc1 [Example II-42] = 1.3

So for CCOc1ncc(C(=O)N(CC)c2cccnc2)n1C [Example II-48] , the logged LogP-neutral turned out to be 1.45

Note to self: LogP-neutral recorded for COc1cncc(Oc2ncc(C(=O)N(C)c3cccnc3)n2C)c1 [Example II-60] was 1.28

Data point: CN(C(=O)c1cnc(Oc2cncc(C(F)(F)F)c2)n1C)c1cccnc1 [Example II-43] ; LogP-neutral = 1.83
